# tested_on: HLA-DRB1*04:01 (Homo sapiens, UniProt P01903+P01911, A100K/A169T/F76Y/I96L/K127E/L162R/M171V/N62H/P40V/Q125Y/R42H/S133A/S149N/S66Y/V115G/V209L/W38E)
# Construct: EBV transformed homozygous cell lines were used as sources of MHC molecules; endogenous in cells; host or cells: EBV transformed homozygous cell lines
# assay_protocol: HLA class II peptide binding, inhibition of radiolabeled peptide binding to purified MHC
# reported_conditions: wild-type (unmodified Arg) 15-mer peptide; purified HLA-DRB1*04:01; read-out: DRB1*04:01 binding capacity, WT peptide (IC50 nM)
measurement_type: IC50 (nM)
Write the number in nM without appending the unit.

## Task Which measured IC50 value corresponds to CC[C@H](C)[C@H](NC(=O)[C@H](CC(=O)O)NC(=O)[C@H](CC(C)C)NC(=O)[C@H](C)NC(=O)[C@H](CCSC)NC(=O)[C@H](CCCCN)NC(=O)[C@@H](NC(=O)[C@H](CC(N)=O)NC(=O)[C@H](CC(C)C)NC(=O)[C@H](CC(C)C)NC(=O)[C@H](CC(=O)O)NC(=O)[C@H](CCC(N)=O)NC(=O)[C@H](Cc1ccc(O)cc1)NC(=O)[C@H](CCC(=O)O)NC(=O)[C@@H](N)CCCNC(=N)N)C(C)C)C(=O)O ?
## Result 1220

---

# tested_on: HLA-DRB1*01:01 (Homo sapiens, UniProt P01903+P01911, A100R/D57E/F55L/F60I/F76Y/I96L/L162R/M171V/P40L/Q125E/R42F/V115G/Y59C)
# Construct: EBV transformed homozygous cell lines were used as sources of MHC molecules; endogenous in cells; host or cells: EBV transformed homozygous cell lines
# assay_protocol: HLA class II peptide binding, inhibition of radiolabeled peptide binding to purified MHC
# reported_conditions: citrullinated 15-mer peptide (X = citrulline); purified HLA-DRB1*01:01; read-out: DRB1*01:01 binding capacity, Cit peptide (IC50 nM)
Square brackets hold non-standard residues; d marks the D form. Peptide text beside a SMILES is read from it. Cit = NC(=O)NCCC[C@H](N)C(=O)O
measurement_type: IC50 (nM)
Number in nM, nothing else.

| compound | measurement_type | test_value |
| --- | --- | --- |
| CC[C@H](C)[C@H](NC(=O)CNC(=O)[C@H](CCCNC(N)=O)NC(=O)[C@H](CCC(N)=O)NC(=O)CNC(=O)[C@H](C)NC(=O)[C@@H](N)CC(C)C)C(=O)N[C@H](C(=O)NCC(=O)N[C@@H](CC(C)C)C(=O)N1CCC[C@H]1C(=O)NCC(=O)N[C@@H](CCC(N)=O)C(=O)N[C@@H](CCCNC(=N)N)C(=O)NCC(=O)O)C(C)C [LAGQXGIVGLPGQRG] (H-LAGQ[Cit]GIVGLPGQRG-OH) | IC50 | 13 |

Now, please, on to the next compound.
## Task What value of IC50 has been recorded for this entry: CC[C@H](C)[C@H](NC(=O)[C@@H](N)CCC(=O)O)C(=O)N[C@@H](C)C(=O)N[C@H](C(=O)N[C@@H](Cc1ccc(O)cc1)C(=O)N[C@@H](CCCNC(=N)N)C(=O)N[C@@H](CCCCN)C(=O)N[C@@H](CC(C)C)C(=O)N[C@@H](CC(C)C)C(=O)N[C@@H](CCC(=O)O)C(=O)NCC(=O)N[C@@H](CCC(=O)O)C(=O)N[C@@H](CCC(=O)O)C(=O)N[C@@H](CO)C(=O)N[C@@H](CCCNC(N)=O)C(=O)O)[C@@H](C)O [EIATYRKLLEGEESX] (H-EIATYRKLLEGEES[Cit]-OH)
## Result 470
